target: 3',5'-cyclic-AMP phosphodiesterase 4B (Homo sapiens, UniProt Q07343); assay: Inhibitory activity against recombinant phosphodiesterase 4B (PDE4B) of human mononuclear lymphocytes
Sequence (Q07343 whole entry): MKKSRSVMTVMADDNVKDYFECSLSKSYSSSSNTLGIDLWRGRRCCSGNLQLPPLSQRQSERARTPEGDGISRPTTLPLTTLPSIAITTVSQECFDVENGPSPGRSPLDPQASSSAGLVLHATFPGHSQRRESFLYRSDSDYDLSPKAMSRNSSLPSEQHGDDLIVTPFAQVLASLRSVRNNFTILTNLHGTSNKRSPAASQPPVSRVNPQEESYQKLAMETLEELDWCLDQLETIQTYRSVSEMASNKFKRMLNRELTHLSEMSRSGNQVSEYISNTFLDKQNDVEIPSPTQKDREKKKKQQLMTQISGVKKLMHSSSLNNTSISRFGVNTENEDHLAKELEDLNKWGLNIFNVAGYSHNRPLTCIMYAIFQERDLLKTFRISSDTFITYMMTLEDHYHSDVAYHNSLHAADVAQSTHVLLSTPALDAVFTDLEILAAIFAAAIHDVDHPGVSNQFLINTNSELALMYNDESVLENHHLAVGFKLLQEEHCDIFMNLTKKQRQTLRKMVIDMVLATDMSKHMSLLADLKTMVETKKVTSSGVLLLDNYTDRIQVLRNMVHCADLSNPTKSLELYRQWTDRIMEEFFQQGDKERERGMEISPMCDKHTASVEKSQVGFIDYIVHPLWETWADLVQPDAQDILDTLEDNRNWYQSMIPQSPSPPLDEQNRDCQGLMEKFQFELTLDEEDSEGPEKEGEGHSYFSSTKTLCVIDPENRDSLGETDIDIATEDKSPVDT
Below, each of the molecules is paired with its reported pIC50 value.
Field pIC50 (float): negative decimal logarithm of the concentration in molar.

- Molecule: "COc1ccc(C(C)Cn2ccnc2O)cc1OC1CCCC1 (stereo unspecified)"
  Measured property: "pIC50"
  Readout number: 7.62
- Molecule: "COc1ccc(CCn2ccnc2O)cc1OC1CCCC1"
  Measured property: "pIC50"
  Readout number: 6.96
- Molecule: "COc1ccc(C(C)Cn2ccnc2NC#N)cc1OCCC1Cc2ccccc2C1 (stereo unspecified)"
  Measured property: "pIC50"
  Readout number: 7.17
- Molecule: "COc1ccc(C(C)Cn2ccnc2O)cc1OCC1CC1 (stereo unspecified)"
  Measured property: "pIC50"
  Readout number: 7.07
- Molecule: "COc1ccc(C2(Cn3ccnc3O)CC2)cc1OC1CCCC1"
  Measured property: "pIC50"
  Readout number: 6.47

input: Item under review: COc1ccc(C(C)Cn2ccnc2O)cc1OC1CC2CCC1C2 (stereo unspecified) . Reported pIC50?
output: 7.68

input: What about this molecule? COc1ccc(C(C)(F)Cn2ccnc2O)cc1OC1CCOC1 (stereo unspecified)
output: 6.49

input: What about this molecule? COc1ccc(C(O)Cn2ccnc2O)cc1OC1Cc2ccccc2C1 (stereo unspecified)
output: 6.40

----------
tested on: Mus musculus; test: Evaluated for antiinflammatory activity in the TPA induced ear inflammation model at a dose 1 mg/kg (25 ug); assay type: functional
Class Met: inhibition in vivo at 1 mg/kg at least 40%. Class Not met: inhibition in vivo at 1 mg/kg below 40%.

Worked examples, 6 compounds total:
- Compound: "COc1ccc(C2CNC(=O)C2)cc1OC1CCCC1 (stereo unspecified) [ROLIPRAM]"
  Label value: "Not met"
- Compound: "COc1ccc(C(C)Cn2ccnc2NC#N)cc1OC1Cc2ccccc2C1 (stereo unspecified)"
  Label value: "Met"
- Compound: "COc1ccc(C(C)Cn2ccnc2NC#N)cc1OCC1CC1 (stereo unspecified)"
  Label value: "Not met"
- Compound: "COc1ccc([C@]2(C#N)CC[C@@H](C(=O)O)CC2)cc1OC1CCCC1 [CILOMILAST]"
  Label value: "Met"
- Compound: "COc1ccc(CCn2ccnc2O)cc1OC1CCCC1"
  Label value: "Not met"
- Compound: "COc1ccc([C@H](C)Cn2ccnc2NC#N)cc1OC1Cc2ccccc2C1"
  Label value: "Met"

input: Check if inhibition in vivo at 1 mg/kg >= 40% (inclusive). Item: COc1ccc([C@@H](C)Cn2cc[nH]/c2=N\C#N)cc1OC1Cc2ccccc2C1
output: Met

input: What about this compound? COc1ccc(C(C)Cn2ccnc2O)cc1OC1CC2CCC1C2 (stereo unspecified)
output: Not met

input: What about this compound? COc1ccc(C(C)Cn2ccnc2NC#N)cc1OCCCCCc1ccccc1 (stereo unspecified)
output: Not met

input: What about this compound? COc1ccc(C(C)Cn2ccnc2NC#N)cc1OC1CCCC1 (stereo unspecified)
output: Met

input: What about this compound? COc1ccc(C(C)Cn2ccnc2O)cc1OCC1CC1 (stereo unspecified)
output: Met

input: What about this compound? COc1ccc(C(=O)Nc2c(Cl)cncc2Cl)cc1OC1CCCC1
output: Met

input: What about this compound? CC(Cn1ccnc1NC#N)c1ccc(OC(F)F)c(OCC2CC2)c1 (stereo unspecified)
output: Not met

input: What about this compound? COc1ccc(C2(Cn3ccnc3O)CC2)cc1OC1CCCC1
output: Not met

input: What about this compound? COc1ccc(C(C)Cn2ccnc2NC#N)cc1OC1CCOC1 (stereo unspecified)
output: Not met
